- Target under test: PP1γ (Homo sapiens, UniProt P36873)
- Sequence (P36873 whole entry, the tested form may be a part): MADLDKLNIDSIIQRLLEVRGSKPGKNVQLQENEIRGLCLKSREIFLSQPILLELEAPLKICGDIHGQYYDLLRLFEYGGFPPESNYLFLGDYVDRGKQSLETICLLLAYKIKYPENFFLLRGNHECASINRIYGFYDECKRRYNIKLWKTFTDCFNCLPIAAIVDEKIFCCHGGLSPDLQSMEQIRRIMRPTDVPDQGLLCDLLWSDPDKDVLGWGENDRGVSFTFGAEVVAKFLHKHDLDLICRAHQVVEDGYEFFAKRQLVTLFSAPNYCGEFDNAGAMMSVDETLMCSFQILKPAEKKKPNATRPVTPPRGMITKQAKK
- Experiment notes: Blot overlay binding of digoxigenin-labelled PP1γ to GST-GL fusion proteins
- Settings: fusion proteins on nitrocellulose membranes

Molecule	binding of digoxigenin-labelled PP1γ
GST-GL(1-94): GST fused to GL residues 1-94 (protein, left off: a dimerising Fc or GST) MAVDIEYSYSSMAPSLRRERFTFKISPKLNKPLRPCIQLGSKDEAGRMVAPTVQEKKVKKRVSFADNQGLALTMVKVFSEFDDPLDIPFNITEL	binds
GST-GL(59-284): GST fused to GL residues 59-284 (protein, left off: a dimerising Fc or GST) KKRVSFADNQGLALTMVKVFSEFDDPLDIPFNITELLDNIVSLTTAESESFVLDFPQPSADYLDFRNRLQTNHVCLENCVLKEKAIAGTVKVQNLAFEKVVKIRMTFDTWKSFTDFPCQYVKDTYAGSDRDTFSFDISLPEKIQSYERMEFAVCYECNGQSYWDSNKGKNYRITRAELRSTQGMTEPYNGPDFGISFDQFGSPRCSFGLFPEWPSYLGYEKLGPYY	binds
GST-GL(170-284): GST fused to GL residues 170-284 (protein, left off: a dimerising Fc or GST) SFTDFPCQYVKDTYAGSDRDTFSFDISLPEKIQSYERMEFAVCYECNGQSYWDSNKGKNYRITRAELRSTQGMTEPYNGPDFGISFDQFGSPRCSFGLFPEWPSYLGYEKLGPYY	not
GST-GL(134-284): GST fused to GL residues 134-284 (protein, left off: a dimerising Fc or GST) LENCVLKEKAIAGTVKVQNLAFEKVVKIRMTFDTWKSFTDFPCQYVKDTYAGSDRDTFSFDISLPEKIQSYERMEFAVCYECNGQSYWDSNKGKNYRITRAELRSTQGMTEPYNGPDFGISFDQFGSPRCSFGLFPEWPSYLGYEKLGPYY	not

From: patent US6710026B1
